Read-out: Matrix Metallopeptidase 1 (MMP1), MMP1 (gene 4312)
assay.protocol: BSK_hDFCGF_MMP1: BioMAP Diversity Plus: hDFCGF Assay for Matrix Metallopeptidase 1 (MMP1) Biomarker Activity (AID 2283064)
run.conditions: primary human foreskin fibroblasts; actives raise or lower the signal
Activity calls are given as the source filed them. Rule for the calls: active = hit-call score of the fitted dose curve at least 0.9, where 1 is the maximum; inactive = score below 0.9.
readout.label: AC50

Answered cases to consult:
INSERT INTO assay_data (molecule, result) VALUES
  ('CCC(=NOC/C=C/Cl)C1=C(O)CC(C2CCOCC2)CC1=O (stereo unspecified)', 'inactive'),
  ('FC(F)C(F)(F)OCC(Cn1cncn1)c1ccc(Cl)cc1Cl (stereo unspecified)', 'inactive'),
  ('Cc1nn(-c2cc(NS(C)(=O)=O)c(Cl)cc2Cl)c(=O)n1C(F)F', 'inactive'),
  ('CN(C)[C@@H]1C(=O)C(C(N)=O)=C(O)[C@@]2(O)C(=O)C3=C(O)c4c(O)cccc4[C@@](C)(O)[C@H]3[C@H](O)[C@@H]12', 'inactive'),
  ('COP(=O)(OC)SCn1c(=O)oc2cc(Cl)cnc21', '30.6 µM (active)'),
  ('CCOP(=S)(OCC)OC(Cl)C(Cl)(Cl)Cl (stereo unspecified)', 'inactive'),
  ('CCCCOC(=O)[C@@H](C)Oc1ccc(Oc2ccc(C#N)cc2F)cc1', 'inactive'),
  ('CNC(=O)ON=C(SC)C(=O)N(C)C', 'inactive'),
  ('O=C(O)c1cc(Oc2ccc(C(F)(F)F)cc2Cl)ccc1[N+](=O)[O-]', 'inactive'),
  ('CCOC(=O)COc1cc(-c2nn(C)c(OC(F)F)c2Cl)c(F)cc1Cl', '0.148 µM (active)');

Per the record, `CCCOCC(=Nc1ccc(Cl)cc1C(F)(F)F)n1ccnc1` has AC50 of 33.2 µM (active)

* * *

assay.protocol: ATG_NRF2_ARE_CIS: Attagene CIS-FACTORIAL HepG2 Assay for human Nuclear Factor Erythroid 2 Related Factor 2 (NFR2) response to Antioxidant Response Elements (ARE) (AID 2282992)
run.conditions: HepG2 Attagene ARE/NRF2 reporter, transcription factor activity; actives raise or lower the signal
Active and inactive are the calls of the source. The calls were made as follows: active = hit-call score of the fitted dose curve at least 0.9, where 1 is the maximum; inactive = score below 0.9.
Field 'call' accepts True = active, False = inactive

Solved entries (count: 5):
INSERT INTO assay_data (compound, assigned_class) VALUES
  ('Cc1cc(C2CC2)nc(Nc2ccccc2)n1', 'True'),
  ('CSc1nc(NC(C)C)nc(NC(C)C)n1', 'True'),
  ('CN(C)C(=O)Nc1cccc(C(F)(F)F)c1', 'False'),
  ('O=c1ccc(=O)[nH][nH]1', 'False'),
  ('O=C(O)c1cc(Oc2ccc(C(F)(F)F)cc2Cl)ccc1[N+](=O)[O-]', 'False');

What was the test verdict on `Nc1c(Cl)cc([N+](=O)[O-])cc1Cl` ?
True

What was the test verdict on CCOP(=S)(Oc1cnc(C(C)(C)C)nc1)OC(C)C (stereo not drawn) ?
True

What was the test verdict on CC(COc1ccc(Oc2ccccc2)cc1)Oc1ccccn1 (stereo not drawn) ?
True

What was the test verdict on C#CCC1=C(C)C(OC(=O)C2C(C=C(C)C)C2(C)C)CC1=O (stereo not drawn) ?
True

What was the test verdict on CC(Oc1cccc(Cl)c1)C(=O)O (stereo not drawn) ?
False

What was the test verdict on CC(C)=CC1C(C(=O)OCN2C(=O)C3=C(CCCC3)C2=O)C1(C)C (stereo not drawn) ?
True

What was the test verdict on `CC[C@H](C)[C@H]1O[C@]2(C=C[C@@H]1C)C[C@@H]1C[C@@H](C/C=C(\C)[C@@H](O[C@H]3C[C@H](OC)[C@@H](O[C@H]4C[C@H](OC)[C@@H](NC)[C@H](C)O4)[C@H](C)O3)[C@@H](C)/C=C/C=C3\CO[C@@H]4[C@H](O)C(C)=C[C@@H](C(=O)O1)[C@]34O)O2` ?
False

What was the test verdict on `CCC(CC)Nc1c([N+](=O)[O-])cc(C)c(C)c1[N+](=O)[O-]` ?
True

What was the test verdict on COP(=O)(NC(C)=O)SC (stereo not drawn) ?
False

What was the test verdict on `CCCOc1nn(C(=O)NS(=O)(=O)c2ccccc2C(=O)OC)c(=O)n1C` ?
False

What was the test verdict on CCC(=NOC/C=C/Cl)C1=C(O)CC(C2CCOCC2)CC1=O (stereo not drawn) ?
False

What was the test verdict on `CNc1cnn(-c2cccc(C(F)(F)F)c2)c(=O)c1Cl` ?
True

* * *

system.tested: Oxysterols receptor LXR-beta (Homo sapiens)
assay.protocol: ATG_LXRb_TRANS: Attagene TRANS-FACTORIAL HepG2 Assay for human Liver X Receptor beta (LXRb) (AID 2282981)
run.conditions: HepG2 Attagene TRANS GAL4-LXRb reporter, mRNA
Records with an inconclusive call do not appear. Activity calls are given as the source filed them. How the source made its calls: active means hit-call score of the fitted dose curve at least 0.9, where 1 is the maximum; inconclusive means response in the unintended direction; inactive means score below 0.9.
Field 'call' accepts yes = active, no = inactive

Solved entries (count: 3):
INSERT INTO results (compound, system_tested, assigned_class) VALUES
  ('CC(Oc1cccc(Cl)c1)C(=O)O (stereo unspecified)', 'Oxysterols receptor LXR-beta (Homo sapiens)', 'no'),
  ('C=C(C)[C@H]1Cc2c(ccc3c2O[C@@H]2COc4cc(OC)c(OC)cc4[C@@H]2C3=O)O1', 'Oxysterols receptor LXR-beta (Homo sapiens)', 'no'),
  ('CCCOc1nn(C(=O)NS(=O)(=O)c2ccccc2C(=O)OC)c(=O)n1C', 'Oxysterols receptor LXR-beta (Homo sapiens)', 'no');

What was the test verdict on COP(=O)(NC(C)=O)SC (stereo unspecified) ?
no

What was the test verdict on `CN(C)[C@@H]1C(=O)C(C(N)=O)=C(O)[C@@]2(O)C(=O)C3=C(O)c4c(O)cccc4[C@@](C)(O)[C@H]3[C@H](O)[C@@H]12` ?
no

What was the test verdict on `CN(C)C(=O)Nc1cccc(C(F)(F)F)c1` ?
no

What was the test verdict on CCc1cnc(C2=NC(C)(C(C)C)C(=O)N2)c(C(=O)O)c1 (stereo unspecified) ?
no

What was the test verdict on CCOP(=O)(SC(C)CC)N1CCSC1=O (stereo unspecified) ?
no

What was the test verdict on `CC(C)N(C(=O)SCC(Cl)=C(Cl)Cl)C(C)C` ?
yes

What was the test verdict on CCOP(=S)(OCC)OC(Cl)C(Cl)(Cl)Cl (stereo unspecified) ?
no

What was the test verdict on COP(=O)(OC)C(O)C(Cl)(Cl)Cl (stereo unspecified) ?
yes

* * *

system.tested: rat CYP2D2, Cyp2d26 (gene 25053) (UniProt P10634)
Sequence (P10634 whole entry, looked up): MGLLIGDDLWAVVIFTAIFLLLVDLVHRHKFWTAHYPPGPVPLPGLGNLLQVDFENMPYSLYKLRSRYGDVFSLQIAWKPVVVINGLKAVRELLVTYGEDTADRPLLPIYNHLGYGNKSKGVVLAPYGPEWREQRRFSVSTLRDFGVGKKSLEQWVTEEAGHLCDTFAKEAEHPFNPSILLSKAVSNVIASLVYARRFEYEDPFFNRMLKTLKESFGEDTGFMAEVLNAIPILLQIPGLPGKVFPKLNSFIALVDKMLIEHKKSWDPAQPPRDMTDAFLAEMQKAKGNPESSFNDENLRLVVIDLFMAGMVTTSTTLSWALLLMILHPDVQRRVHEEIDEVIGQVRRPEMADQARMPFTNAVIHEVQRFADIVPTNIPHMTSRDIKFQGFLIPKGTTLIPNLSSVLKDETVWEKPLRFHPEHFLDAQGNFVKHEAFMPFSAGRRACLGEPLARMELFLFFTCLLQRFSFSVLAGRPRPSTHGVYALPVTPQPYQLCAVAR
assay.protocol: NVS_ADME_rCYP2D2: NovaScreen (NVS) CYP450-related Enzyme Activity (ADME) Assay for rat CYP2D2 (AID 2283124)
Inconclusive results are not listed. Active and inactive are the calls of the source. Rule for the calls: active = hit-call score of the fitted dose curve at least 0.9, where 1 is the maximum; inconclusive = response in the unintended direction; inactive = score below 0.9.
readout.label: AC50

Answered cases to consult:
INSERT INTO results (compound, readout_label, result) VALUES
  ('CC[C@H](C)[C@H]1O[C@]2(C=C[C@@H]1C)C[C@@H]1C[C@@H](C/C=C(\C)[C@@H](O[C@H]3C[C@H](OC)[C@@H](O[C@H]4C[C@H](OC)[C@@H](NC)[C@H](C)O4)[C@H](C)O3)[C@@H](C)/C=C/C=C3\CO[C@@H]4[C@H](O)C(C)=C[C@@H](C(=O)O1)[C@]34O)O2', 'AC50', '3.96 µM (active)'),
  ('CCCCOC(=O)[C@@H](C)Oc1ccc(Oc2ccc(C#N)cc2F)cc1', 'AC50', '12.1 µM (active)'),
  ('FC(F)C(F)(F)OCC(Cn1cncn1)c1ccc(Cl)cc1Cl (stereo not given)', 'AC50', '5.52 µM (active)'),
  ('CCCOCC(=Nc1ccc(Cl)cc1C(F)(F)F)n1ccnc1', 'AC50', '3.2 µM (active)');

Below: the item to evaluate.
Per the record, CC(C)=CC1C(C(=O)OCN2C(=O)C3=C(CCCC3)C2=O)C1(C)C (stereo not given) has AC50 of 10 µM (active)

* * *

Read-out: Cytochrome P450 2B6 (Homo sapiens) (UniProt P20813)
assay.protocol: CLD_CYP2B6_48hr: CellzDirect (CLD) Gene Expression Assay for xenobiotic metabolism (CYP2B6) at 48 hours (AID 2283699);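 note: actives raise transcript level above DMSO so potency reflects induction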
Inconclusive results are not listed. Activity calls are given as the source filed them. The calls were made as follows: active = hit-call score of the fitted dose curve at least 0.9, where 1 is the maximum; inconclusive = response in the unintended direction; inactive = score below 0.9.
Field 'call' accepts true = active, false = inactive

Solved entries (count: 5):
INSERT INTO results (compound, assigned_class) VALUES
  ('CN(C)C(=O)Nc1cccc(C(F)(F)F)c1', 'true'),
  ('CCC(=NOC/C=C/Cl)C1=C(O)CC(C2CCOCC2)CC1=O (stereo not given)', 'false'),
  ('COc1cccc(C(=O)NN(C(=O)c2cc(C)cc(C)c2)C(C)(C)C)c1C', 'false'),
  ('CCCCSP(=O)(SCCCC)SCCCC', 'true'),
  ('CCCCN(CC)c1c([N+](=O)[O-])cc(C(F)(F)F)cc1[N+](=O)[O-]', 'true');

What was the test verdict on CCc1cccc(C)c1N(C(=O)CCl)C(C)COC (stereo not given) ?
true

What was the test verdict on `CCOC(=O)COc1cc(-c2nn(C)c(OC(F)F)c2Cl)c(F)cc1Cl` ?
true

What was the test verdict on `CN(C)NC(=O)CCC(=O)O` ?
false

What was the test verdict on `CCCOc1nn(C(=O)NS(=O)(=O)c2ccccc2C(=O)OC)c(=O)n1C` ?
false

What was the test verdict on C#CCC1=C(C)C(OC(=O)C2C(C=C(C)C)C2(C)C)CC1=O (stereo not given) ?
true

Data origin, for the record: PubChem BioAssay (EPA / NIEHS)
